Test system: MCF7
Test: Cytotoxicity against human MCF7 cells assessed as protein level per 10 '6 cells at 1/10 of IC50 after 24 hrs (reference value: 110.5 +/- 12.3 ug)
Type: functional
Would you mind labelling by Activity? At or over 40 µg is class 1, under is class 0.

molecule	targetOrTestSystem	label
Cc1nc2c(cnn2-c2ccc(Cl)cc2)c(=O)n1/N=C/c1ccccc1	MCF7	class 1
COc1ccc(/C=N/n2c(C)nc3c(cnn3-c3ccc(Cl)cc3)c2=O)cc1	MCF7	class 1
COc1cc(/C=N/NC(=O)c2cn[nH]c2NC(C)=O)cc(OC)c1OC	MCF7	class 1
COc1cc(/C=N/n2c(C)nc3c(cnn3-c3ccc(Cl)cc3)c2=O)ccc1O	MCF7	class 1
COc1cc(/C=N/n2c(C)nc3c(cnn3-c3ccc(Cl)cc3)c2=O)cc(OC)c1OC	MCF7	class 0
COc1cc(/C=N/n2c(C)nc3c(cnn3S(=O)(=O)c3ccc(Cl)cc3)c2=O)cc(OC)c1OC	MCF7	class 1

----------
Test system: MCF7
Assay: Cytotoxicity against human MCF7 cells assessed as nitric oxide level per mg protein at 1/10 of IC50 after 24 hrs (reference value: 1.9 +/- 0.16 umol)
Assay type: functional
Lab note: cut-off is 3 µmol. Strictly less in Activity is True. Exactly 3 µmol or more is False.

molecule	label
COc1ccc(/C=N/n2c(C)nc3c(cnn3-c3ccc(Cl)cc3)c2=O)cc1	True
COc1cc(/C=N/n2c(C)nc3c(cnn3-c3ccc(Cl)cc3)c2=O)ccc1O	False
COc1cc(/C=N/n2c(C)nc3c(cnn3-c3ccc(Cl)cc3)c2=O)cc(OC)c1OC	False
COc1cc(/C=N/n2c(C)nc3c(cnn3S(=O)(=O)c3ccc(Cl)cc3)c2=O)cc(OC)c1OC	True

----------
Test system: MCF7
Experiment: Induction of oxidative stress in human MCF7 cells assessed as catalase activity per mg of protein at 1/10 of IC50 after 24 hrs (reference value: 7.6 +/- 0.7 U)
Format: functional

molecule	unitsLabel	Activity
Cc1nc2c(cnn2-c2ccc(Cl)cc2)c(=O)n1/N=C/c1ccccc1	U	3.82
COc1cc(/C=N/n2c(C)nc3c(cnn3-c3ccc(Cl)cc3)c2=O)ccc1O	U	3.5
COc1cc(/C=N/n2c(C)nc3c(cnn3S(=O)(=O)c3ccc(Cl)cc3)c2=O)cc(OC)c1OC	U	4.3
COc1ccc(/C=N/n2c(C)nc3c(cnn3-c3ccc(Cl)cc3)c2=O)cc1	U	7.4
COc1cc(/C=N/n2c(C)nc3c(cnn3-c3ccc(Cl)cc3)c2=O)cc(OC)c1OC	U	2.2
COc1cc(/C=N/NC(=O)c2cn[nH]c2NC(C)=O)cc(OC)c1OC	U	5.85
